# Test system: M. mycetomatis genome strain MM55
# Procedure Summary: CLSI M38-A2 based in vitro susceptibility screening (XTT or resazurin), growth at fixed concentration
# Type: cell-based, Madurella mycetomatis
# Run Conditions: Madurella mycetomatis, 25 uM, replicate A, MM55; read-out: Percentage survival at 25um, 25 um A
The following compounds are listed with their measured activity at 25 µM values.
Parameter: activity at 25 µM (%)

>>> observed_measurement("c1cc(CN2CCCNCCNCCCNCC2)ccc1CN1CCCNCCNCCCNCC1 [MMV1580502]")
89
>>> observed_measurement("COc1ccc(CNC(=O)C2CCN([C@H](C)c3cccc4ccccc34)CC2)cc1 [MMV1634397]")
62.4
>>> observed_measurement("C/C(=N\\NC(=O)C1CC1c1ccccc1)c1ccc(NC(=O)c2ccco2)cc1 (centres unmarked) [MMV1580487]")
79.1
>>> observed_measurement("C=CCN(C(=O)OCc1ccc([N+](=O)[O-])cc1)C1CCN(CC[C@](C)(CN(C)S(=O)(=O)c2ccccc2)c2ccccc2)CC1 [MMV1782214]")
79.7
>>> observed_measurement("Cc1cc(CCOc2c(C)cc(-c3nnn(C)n3)cc2C)on1 [MMV1782349]")
84.4

###

# System: M. mycetomatis genome strain MM55
# Procedure Summary: CLSI M38-A2 based in vitro susceptibility screening (XTT or resazurin), growth at fixed concentration
# Format: cell-based, Madurella mycetomatis
# Run Conditions: Madurella mycetomatis, 25 uM, replicate A; read-out: Percentage survival at 25um, 25 um A
Classification scheme (activity at 25 µM): c1 = under 80%, c2 = from 80% up to 90%, c3 = 90% and over

>>> class_assignment("CC(=O)N1c2ccccc2NC2=C(C(=O)CC(C)(C)C2)C1c1ccc(OCc2ccccc2)cc1 (centres unmarked)")
"c3"
>>> class_assignment("Oc1ccc2[nH]c(-c3ccccc3)nc2c1")
"c2"
>>> class_assignment("Cc1[nH]c2ccccc2c1CCNCc1ccc(/C=C/C(=O)NO)cc1")
"c3"
>>> class_assignment("COc1ccccc1CN[C@H]1C2CCN(CC2)[C@H]1C(c1ccccc1)c1ccccc1")
"c1"
>>> class_assignment("CCCCCc1ccc(C(=O)NCCn2cc(CCCCCc3cnc(N)[nH]3)nn2)cc1")
"c1"
>>> class_assignment("COc1c(F)c(F)cc2c(=O)c(C(=O)O)cn(C3CC3)c12")
"c2"
>>> class_assignment("CC(=O)NC[C@H]1CN(c2ccc(N3CCSCC3)c(F)c2)C(=O)O1")
"c3"
>>> class_assignment("CCC(C)NCC(O)Cn1c2ccc(Cl)cc2c2cc(Cl)ccc21 (centres unmarked)")
"c1"
>>> class_assignment("CC(C)Oc1ccc(-c2nc(-c3cccc4c3CC[C@@H]4NCCO)no2)cc1C#N")
"c1"
>>> class_assignment("CO/N=C(\\C(=O)N[C@@H]1C(=O)N2C(C(=O)OCOC(=O)C(C)(C)C)=C(/C=C\\c3scnc3C)CS[C@H]12)c1csc(N)n1")
"c2"
>>> class_assignment("O=C(NNC(=S)Nc1ccc(Cl)cc1)c1ccncc1")
"c3"
>>> class_assignment("NC(=O)c1c(N)sc2c1CCCCC2")
"c3"
>>> class_assignment("CCN(CC)CCCC(C)Nc1ccnc2cc(Cl)ccc12 (centres unmarked)")
"c2"
>>> class_assignment("CCC(C)n1ncn(-c2ccc(N3CCN(c4ccc(OCC5COC(Cn6cncn6)(c6ccc(Cl)cc6Cl)O5)cc4)CC3)cc2)c1=O (centres unmarked) [MMV637528, Itraconazole, reference compound]")
"c1"
>>> class_assignment("COC(=O)Nc1nc2c(C)cccc2[nH]1")
"c1"
>>> class_assignment("CNCC(=O)OCc1cccnc1N(C)C(=O)OC(C)[n+]1cnn(C[C@](O)(c2cc(F)ccc2F)[C@@H](C)c2nc(-c3ccc(C#N)cc3)cs2)c1 (some centres unmarked) [MMV1634494, Isavuconazonium, reference compound]")
"c1"
>>> class_assignment("O=C1[C@H](CC[C@H](O)c2ccc(F)cc2)[C@@H](c2ccc(O)cc2)N1c1ccc(F)cc1")
"c2"
>>> class_assignment("O=C(NCc1cccc2ccccc12)c1cccs1")
"c1"
>>> class_assignment("CCOC(=O)/C=C/[C@H](C[C@@H]1CCNC1=O)NC(=O)[C@@H](CC(=O)[C@@H](NC(=O)c1cc(C)on1)C(C)C)Cc1ccc(F)cc1")
"c3"
>>> class_assignment("CC(Cc1ccccc1)C(=O)Nc1ccc(Cl)cc1C(=O)O (centres unmarked)")
"c3"
>>> class_assignment("O=C(NC1CCCc2c1[nH]c1ccc(Cl)cc21)c1ccccn1 (centres unmarked)")
"c1"
>>> class_assignment("COc1cc(NCc2ccc3nc(N)nc(N)c3c2C)cc(OC)c1OC")
"c3"
>>> class_assignment("O=c1ccc2ncc(=O)n3c2n1CC3CN1CCC(NCc2cc3c(cn2)OCCC3)CC1 (centres unmarked)")
"c2"
>>> class_assignment("Nc1nc(O)c2ncn(COC(CO)CO)c2n1")
"c2"
>>> class_assignment("CN(C)[C@@H]1C(=O)C(C(N)=O)=C(O)[C@@]2(O)C(=O)C3=C(O)c4c(O)c(NC(=O)CN5CCCC5)cc(F)c4C[C@H]3C[C@@H]12")
"c1"
